Just for reference, patent US20260216180A1 is where these values come from.

For reference, IC50 measured on CYP2C9 (Homo sapiens):
Output spec: scalar in µM, unitless text.

INSERT INTO assay_data (compound, recordedmeasurement) VALUES
  ('FC(F)(F)Oc1ccc(Nc2ccc3cccc(Cl)c3n2)cc1 [ABX464, reference compound]', 15.1);

Attention now shifts to the item below.
Can you share its IC50? I mean this compound: Fc1cc(Cl)c2nc(Nc3ccc(C4(C(F)(F)F)CC4)cc3)ccc2c1 20.2

###

Below, each entry is listed alongside its reported pIC50.
- targetOrSystem: CYP3A4 (Homo sapiens, UniProt P08684)
- Construct: Commercially available mixed human liver microsomes were used; from tissue; host or cells: pooled human liver microsomes
- Sequence (P08684 whole entry): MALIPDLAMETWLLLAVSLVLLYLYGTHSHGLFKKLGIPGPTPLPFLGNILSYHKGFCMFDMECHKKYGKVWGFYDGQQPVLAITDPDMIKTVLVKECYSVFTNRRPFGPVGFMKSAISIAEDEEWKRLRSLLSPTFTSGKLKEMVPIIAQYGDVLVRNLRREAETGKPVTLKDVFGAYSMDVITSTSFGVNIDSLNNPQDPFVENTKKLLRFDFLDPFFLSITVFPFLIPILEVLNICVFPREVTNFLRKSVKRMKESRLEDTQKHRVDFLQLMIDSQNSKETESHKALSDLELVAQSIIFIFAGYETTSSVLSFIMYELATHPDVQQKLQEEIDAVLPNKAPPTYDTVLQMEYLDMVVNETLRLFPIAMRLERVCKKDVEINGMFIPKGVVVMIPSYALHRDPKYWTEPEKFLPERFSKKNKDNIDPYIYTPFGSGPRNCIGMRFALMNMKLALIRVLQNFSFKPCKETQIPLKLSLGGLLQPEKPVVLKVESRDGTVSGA
- assayComment: CYP enzyme inhibition, human liver microsomes, CYP3A4
- Format: in vitro ADME
- reportedConditions: probe substrate Testosterone, read-out: IC50 CYP 3A4-Testosterone
pIC50: −log10 of the molar value.

INSERT INTO results (compound, recordedmeasurement) VALUES
  ('Fc1cc(Cl)c2nc(Nc3ccc(C4(C(F)(F)F)CC4)cc3)ccc2c1 [Compound 18]', '< 4.00');

Form field: reported pIC50 of FC(F)(F)Oc1ccc(Nc2ccc3cccc(Cl)c3n2)cc1 [ABX464, reference compound] < 4.00
